# Test system: SNB-19
# assay explanation: NCI tumour cell line growth inhibition, 48 h
Active and inactive are the calls of the source. No stated cut-off is given here; in the data, active = GI50 up to about 1.1 µM and inactive = higher.
Assign a class; possible classes are yes (1) for active, no (0) for inactive

Identify the outcome logged in this assay for the molecule shown: N#C/C(=C1\SC(/N=N/c2ccccc2)C(=O)N1c1ccccc1)c1nc2ccccc2[nH]1 (stereo not drawn)
no (0)

Identify the outcome logged in this assay for the molecule shown: O=S(=O)(CCC[C@H]1[C@@H](CCOCc2ccccc2)C2CCCN1O2)c1ccccc1 (stereo partly drawn)
no (0)

Identify the outcome logged in this assay for the molecule shown: CN(C)c1ccc(-c2nc(-c3cc4c(ccc5ccccc54)oc3=O)cs2)cc1
no (0)

Identify the outcome logged in this assay for the molecule shown: O=C(Nc1sccc1S(=O)(=O)c1ccc(Cl)cc1)c1ccccc1
no (0)

Identify the outcome logged in this assay for the molecule shown: CC(=O)OCC1OC(NC(=S)N/N=C2\CC(c3ccccc3)Oc3ccccc32)C(OC(C)=O)C(OC(C)=O)C1OC(C)=O (stereo not drawn)
no (0)

Identify the outcome logged in this assay for the molecule shown: Cc1ccc(S(=O)(=O)N/N=c2\c(C)c(C3=NS(=O)(=O)c4cc(S(N)(=O)=O)c(Cl)cc4N3)oc3c(Cl)cc(Cl)cc23)cc1
no (0)

Identify the outcome logged in this assay for the molecule shown: O=C([O-])C(O)C(O)C(O)C(O)C(=O)O.[K+] (stereo not drawn)
no (0)

---

GI50 reference
# Tested on: LOX IMVI
# assay explanation: NCI tumour cell line growth inhibition, 48 h
Active and inactive are the calls of the source. Rule as the data show it: active = GI50 up to about 1.1 µM and inactive = higher.

Consider the reported GI50 for these compounds:
CN(C(=O)C1=CCC2(CC1)OCCO2)c1ccccc1I | > 100 µM (inactive)
CCN(CC)CCC(=O)c1ccccc1 | 19.4 µM (inactive)
CC(C)(C)O/N=C/c1cc(NC(=S)c2ccccc2)ccc1Cl | 15.7 µM (inactive)
COc1cc(Br)c(/C=N\c2cccc3cc(OC)c(OC)cc23)cc1OC | 35.3 µM (inactive)
CN(C)CCNC(=O)c1cccc2nc3ccc4ccccc4c3nc12 | 0.0726 µM (active)
Cn1c(=O)oc2cc(C(=S)N3CCC(Cc4ccccc4)CC3)ccc21 | > 100 µM (inactive)

For the compound COC(=O)c1ccccc1C1CN=NC12Cc1cccc(C)c1C2=O (stereo not drawn) , what GI50 is on record?
55 µM (inactive)

For the compound COC(=O)Cc1ccc2c(c1)Sc1ccc(CC(=O)OC)cc1N2C , what GI50 is on record?
14.3 µM (inactive)

---

GI50 reference
# System: OVCAR-3
# assay explanation: NCI tumour cell line growth inhibition, 48 h
Activity calls are given as the source filed them. No stated cut-off is given here; in the data, active = GI50 up to about 1.1 µM and inactive = higher.

COc1cc2oc(-c3ccc(O)cc3O)c(CC=C(C)C)c(=O)c2c(O)c1/C=C/C(C)C [ARTOCARPIN] | 2.08 µM (inactive)
CCOC1C=CC(=O)C(CO)O1 (configuration not stated) | 6.73 µM (inactive)
Cc1cn(C2CC(O)C(Cn3cc(Cn4ncc(=O)[nH]c4=O)nn3)O2)c(=O)[nH]c1=O (configuration not stated) | > 100 µM (inactive)
O=C([O-])C(O)C(O)C(O)C(O)C(=O)O.[K+] (configuration not stated) | > 100 µM (inactive)
CCCCCCCCCCCCn1c(=O)cc(NCCCC)c2cc3c(NCCCC)cc(=O)n(CCCCCCCCCCCC)c3nc21 | > 100 µM (inactive)
Nc1nc(N)c2nc(CNc3ccc(C(=O)NC(CCC(=O)O)C(=O)O)cc3F)cnc2n1 (configuration not stated) | 45.1 µM (inactive)

In the following, a different molecule is considered.
For the molecule O=C1Nc2cc([N+](=O)[O-])ccc2C(=O)N2CCC[C@@H]12 , what GI50 is on record?
> 100 µM (inactive)
